Below, each entry is listed alongside its reported function blocking activity [IC50 M], 1st exp..
- target.of.assay: T1, human alpha2-Antiplasmin (human, UniProt P08697 40-491)
- T1 sequence: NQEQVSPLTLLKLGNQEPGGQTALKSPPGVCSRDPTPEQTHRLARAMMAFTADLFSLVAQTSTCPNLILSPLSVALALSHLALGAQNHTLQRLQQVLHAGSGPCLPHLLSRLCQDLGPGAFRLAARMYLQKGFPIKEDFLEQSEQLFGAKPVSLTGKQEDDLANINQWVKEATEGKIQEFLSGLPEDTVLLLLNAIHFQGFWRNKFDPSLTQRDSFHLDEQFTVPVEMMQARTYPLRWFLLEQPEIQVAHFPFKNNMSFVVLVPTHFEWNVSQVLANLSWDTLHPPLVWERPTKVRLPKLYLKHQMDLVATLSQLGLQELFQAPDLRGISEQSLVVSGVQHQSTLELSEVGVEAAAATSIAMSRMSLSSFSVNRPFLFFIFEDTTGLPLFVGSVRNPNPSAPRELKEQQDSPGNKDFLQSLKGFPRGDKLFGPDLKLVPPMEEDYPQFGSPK
- test.details: cell-based or functional assay
Kindly provide the numeric value in nM only, without the unit symbol.

# example entries with known answers
[
  {
    "binder": "TPP-14323 hIgG1 (antibody, V domains shown) VH: EVQLLESGGGLVQPGGSLRLSCAASGFTFDDYAMSWVRQAPGKGLEWVSAIGTGGGTYYADSVKGRFTISRDNSKNTLYLQMNSLRAEDTAVYYCAREYYDSSGYYHLTYWGQGTLVTVSS VL: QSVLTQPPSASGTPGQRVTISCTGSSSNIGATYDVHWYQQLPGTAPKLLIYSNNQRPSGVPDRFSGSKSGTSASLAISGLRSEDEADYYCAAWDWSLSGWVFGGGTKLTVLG",
    "measured.value": 20
  },
  {
    "binder": "TPP-14308 hIgG1 (antibody, V domains shown, starting point of the germlining) VH: EVQLLESGGGLVQPGGSLRLSCAASGFTFDDYAMSWVRQAPGKGLEWVSAIGTGGGTYYADSVKGRFTISRDNSKNTLYLQMNSLRAEDTAVYYCAREGYDSSGYYHLDYWGQGTLVTVSS VL: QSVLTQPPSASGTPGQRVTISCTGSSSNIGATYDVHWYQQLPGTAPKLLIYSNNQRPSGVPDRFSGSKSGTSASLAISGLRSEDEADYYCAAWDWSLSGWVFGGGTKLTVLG",
    "measured.value": 2.4
  }
]

Now for another entry.
function blocking activity [IC50 M], 1st exp. reading for TPP-14298 hIgG1 (antibody, V domains shown) VH: EVQLLESGGGLVQPGGSLRLSCAASGFTFDDYAMSWVRQAPGKGLEWVSAIGTGGGTYYADSVKGRFTISRDNSKNTLYLQMNSLRAEDTAVYYCASEYYDSSGYYHLDYWGQGTLVTVSS VL: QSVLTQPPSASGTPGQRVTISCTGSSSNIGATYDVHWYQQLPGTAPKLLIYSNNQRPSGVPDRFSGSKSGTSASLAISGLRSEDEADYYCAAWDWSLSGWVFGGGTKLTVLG : 31

Entry source: patent US20240010750A1
